- target-desc: UniProt P13631
- Sequence (P13631 185-454 limits assumed): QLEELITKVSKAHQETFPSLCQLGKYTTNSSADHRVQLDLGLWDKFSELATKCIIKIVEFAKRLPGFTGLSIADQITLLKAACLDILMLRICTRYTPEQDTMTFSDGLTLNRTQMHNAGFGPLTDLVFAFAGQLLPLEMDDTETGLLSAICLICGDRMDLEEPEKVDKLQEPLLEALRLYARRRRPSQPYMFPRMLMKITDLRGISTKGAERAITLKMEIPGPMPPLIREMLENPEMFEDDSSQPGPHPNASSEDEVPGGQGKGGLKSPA
- method-description: Transactivation test (Kd apparent), RAR gamma
- measurement-conditions: HeLa cells stably transfected with ERE-βGlob-Luc-SV-Neo reporter and RAR γ ER-DBD-puro; luciferase; Schild regression vs reference antagonist; read-out: RAR gamma Kd app
In this section we review reported Kd values for a set of molecules.

Record excerpt, results attached:
Q. Consider the molecule shown here: CC1(C)CCC(C)(C)c2cc(-c3cc(-c4ccc(C(=O)O)cc4)ccc3OCCCCN)ccc21 [Compound 75] What is its recorded Kd?
A. 60 nM

Q. Consider the molecule shown here: CC1(C)CCC(C)(C)c2cc(-c3cc(-c4ccc(C(=O)O)cc4)ccc3OCCCCNC3CC3)ccc21 [Compound 59] What is its recorded Kd?
A. 1000 nM

Q. Consider the molecule shown here: CC1(C)CCC(C)(C)c2cc(-c3cc(-c4ccc(C(=O)O)cc4)ccc3OCCNC3CC3)ccc21 [Compound 67] What is its recorded Kd?
A. 4 nM

Q. Consider the molecule shown here: CNCCCOc1ccc(-c2ccc(C(=O)O)cc2)cc1-c1ccc2c(c1)C(C)(C)CCC2(C)C [Compound 61] What is its recorded Kd?
A. 30 nM

More entries:
Q. Consider the molecule shown here: CC1(C)CCC(C)(C)c2cc(-c3cc(-c4ccc(C(=O)O)cc4)ccc3OCCCCCN)ccc21 [Compound 73] What is its recorded Kd?
A. 120 nM

Q. Consider the molecule shown here: CC1(C)CCC(C)(C)c2cc(-c3cc(-c4ccc(C(=O)O)cc4)ccc3OCCCCCNC3CC3)ccc21 [Compound 69] What is its recorded Kd?
A. 250 nM

Q. Consider the molecule shown here: CC(C)NCCCCOc1ccc(-c2ccc(C(=O)O)cc2)cc1-c1ccc2c(c1)C(C)(C)CCC2(C)C [Compound 1] What is its recorded Kd?
A. 15 nM
